Reference source for all entries: the supplement of paper PMC7125110

B1: glmS ribozyme (parent)
chain: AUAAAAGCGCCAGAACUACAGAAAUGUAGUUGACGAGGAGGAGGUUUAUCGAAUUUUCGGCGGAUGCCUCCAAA

variants of: B1; assay: self-cleavage kobs at 160 uM GlcN6P; higher = faster cleavage; RNA array; settings: with glucosamine-6-phosphate
This sample holds only a part of the variants without activity.
For each of the variants below, state its self-cleavage kobs at 160 uM GlcN6P.

Ask | Requested field: self-cleavage kobs at 160 uM GlcN6P. Item: C8U C11U C34G A36U
Reply | < 1e-05 s⁻¹

Ask | Requested field: self-cleavage kobs at 160 uM GlcN6P. Item: U46G G66C
Reply | 0.000418 s⁻¹

Ask | Requested field: self-cleavage kobs at 160 uM GlcN6P. Item: A39U C67A
Reply | 0.000759 s⁻¹

Ask | Requested field: self-cleavage kobs at 160 uM GlcN6P. Item: G35U A48G
Reply | < 1e-05 s⁻¹

Ask | Requested field: self-cleavage kobs at 160 uM GlcN6P. Item: G7C G66U
Reply | < 1e-05 s⁻¹

Ask | Requested field: self-cleavage kobs at 160 uM GlcN6P. Item: A39G G40U U55C C71A
Reply | 0.000368 s⁻¹

Ask | Requested field: self-cleavage kobs at 160 uM GlcN6P. Item: C10U U55G
Reply | < 1e-05 s⁻¹

Ask | Requested field: self-cleavage kobs at 160 uM GlcN6P. Item: A6C G62C
Reply | < 1e-05 s⁻¹

Ask | Requested field: self-cleavage kobs at 160 uM GlcN6P. Item: U56A C67G
Reply | 0.000246 s⁻¹

Ask | Requested field: self-cleavage kobs at 160 uM GlcN6P. Item: C16U U54C
Reply | 0.00146 s⁻¹

Ask | Requested field: self-cleavage kobs at 160 uM GlcN6P. Item: G7A C67U
Reply | < 1e-05 s⁻¹

Ask | Requested field: self-cleavage kobs at 160 uM GlcN6P. Item: G37A C50U
Reply | < 1e-05 s⁻¹

Ask | Requested field: self-cleavage kobs at 160 uM GlcN6P. Item: A53C C58G G60A C67U
Reply | 0.000139 s⁻¹

Ask | Requested field: self-cleavage kobs at 160 uM GlcN6P. Item: G38U G40U A53C C61G A64G C68A
Reply | < 1e-05 s⁻¹

Ask | Requested field: self-cleavage kobs at 160 uM GlcN6P. Item: G66U C71A
Reply | 3.4e-05 s⁻¹

Ask | Requested field: self-cleavage kobs at 160 uM GlcN6P. Item: U45G U55G
Reply | 0.000304 s⁻¹

Ask | Requested field: self-cleavage kobs at 160 uM GlcN6P. Item: A14U U54C
Reply | 0.000513 s⁻¹

Ask | Requested field: self-cleavage kobs at 160 uM GlcN6P. Item: C34A C58U
Reply | < 1e-05 s⁻¹

Ask | Requested field: self-cleavage kobs at 160 uM GlcN6P. Item: G7A C8A U49G
Reply | < 1e-05 s⁻¹

Ask | Requested field: self-cleavage kobs at 160 uM GlcN6P. Item: A33C C70A
Reply | < 1e-05 s⁻¹

Ask | Requested field: self-cleavage kobs at 160 uM GlcN6P. Item: U31G G51C U57C
Reply | < 1e-05 s⁻¹

Ask | Requested field: self-cleavage kobs at 160 uM GlcN6P. Item: G7U G13C A39G
Reply | < 1e-05 s⁻¹

Ask | Requested field: self-cleavage kobs at 160 uM GlcN6P. Item: G51U C61U
Reply | < 1e-05 s⁻¹

Ask | Requested field: self-cleavage kobs at 160 uM GlcN6P. Item: C16U G29C C67A
Reply | 0.00011 s⁻¹

Ask | Requested field: self-cleavage kobs at 160 uM GlcN6P. Item: C8G A15C
Reply | < 1e-05 s⁻¹

Ask | Requested field: self-cleavage kobs at 160 uM GlcN6P. Item: C8U C61U
Reply | < 1e-05 s⁻¹

Ask | Requested field: self-cleavage kobs at 160 uM GlcN6P. Item: G9U A15U
Reply | < 1e-05 s⁻¹

Ask | Requested field: self-cleavage kobs at 160 uM GlcN6P. Item: U55G G66U
Reply | 8.99e-05 s⁻¹

Ask | Requested field: self-cleavage kobs at 160 uM GlcN6P. Item: A15G U69G
Reply | 5.34e-05 s⁻¹

Ask | Requested field: self-cleavage kobs at 160 uM GlcN6P. Item: G62A A64C
Reply | < 1e-05 s⁻¹

Ask | Requested field: self-cleavage kobs at 160 uM GlcN6P. Item: G7A A53C
Reply | < 1e-05 s⁻¹

Ask | Requested field: self-cleavage kobs at 160 uM GlcN6P. Item: G9A A14G U30A
Reply | < 1e-05 s⁻¹

Ask | Requested field: self-cleavage kobs at 160 uM GlcN6P. Item: G35C U65C
Reply | < 1e-05 s⁻¹

Ask | Requested field: self-cleavage kobs at 160 uM GlcN6P. Item: A6G C10G U46G
Reply | < 1e-05 s⁻¹

Ask | Requested field: self-cleavage kobs at 160 uM GlcN6P. Item: G9C U30G U45A
Reply | < 1e-05 s⁻¹

Ask | Requested field: self-cleavage kobs at 160 uM GlcN6P. Item: A14G G41A
Reply | 0.000481 s⁻¹

Ask | Requested field: self-cleavage kobs at 160 uM GlcN6P. Item: C11G G63U
Reply | < 1e-05 s⁻¹

Ask | Requested field: self-cleavage kobs at 160 uM GlcN6P. Item: U47C G60U
Reply | < 1e-05 s⁻¹

Ask | Requested field: self-cleavage kobs at 160 uM GlcN6P. Item: A15C G32U A33C
Reply | < 1e-05 s⁻¹

Ask | Requested field: self-cleavage kobs at 160 uM GlcN6P. Item: A6C G40U C61A
Reply | < 1e-05 s⁻¹

Ask | Requested field: self-cleavage kobs at 160 uM GlcN6P. Item: C11A A48U
Reply | < 1e-05 s⁻¹

Ask | Requested field: self-cleavage kobs at 160 uM GlcN6P. Item: G9U U49G
Reply | < 1e-05 s⁻¹

Ask | Requested field: self-cleavage kobs at 160 uM GlcN6P. Item: A12C G51U C58G C61A
Reply | < 1e-05 s⁻¹

Ask | Requested field: self-cleavage kobs at 160 uM GlcN6P. Item: C16U U31A G43U A52U
Reply | < 1e-05 s⁻¹

Ask | Requested field: self-cleavage kobs at 160 uM GlcN6P. Item: G40A U56G
Reply | 0.000189 s⁻¹

Ask | Requested field: self-cleavage kobs at 160 uM GlcN6P. Item: A6C C11U
Reply | < 1e-05 s⁻¹

Ask | Requested field: self-cleavage kobs at 160 uM GlcN6P. Item: C16G G29C
Reply | 0.00103 s⁻¹

Ask | Requested field: self-cleavage kobs at 160 uM GlcN6P. Item: A52C A64G
Reply | < 1e-05 s⁻¹

Ask | Requested field: self-cleavage kobs at 160 uM GlcN6P. Item: A53G U55C
Reply | 0.00157 s⁻¹

Ask | Requested field: self-cleavage kobs at 160 uM GlcN6P. Item: C16U G66A
Reply | 0.00133 s⁻¹

Ask | Requested field: self-cleavage kobs at 160 uM GlcN6P. Item: U49A A52U U65A U69G
Reply | 7.53e-05 s⁻¹

Ask | Requested field: self-cleavage kobs at 160 uM GlcN6P. Item: U45G C70U
Reply | 0.00139 s⁻¹

Ask | Requested field: self-cleavage kobs at 160 uM GlcN6P. Item: C10G U31A U49G
Reply | < 1e-05 s⁻¹

Ask | Requested field: self-cleavage kobs at 160 uM GlcN6P. Item: C34U G40U
Reply | < 1e-05 s⁻¹

Ask | Requested field: self-cleavage kobs at 160 uM GlcN6P. Item: A14U A15C A48C U56A C67A
Reply | < 1e-05 s⁻¹

Ask | Requested field: self-cleavage kobs at 160 uM GlcN6P. Item: A1U U2G A3G A5U A14C U69C
Reply | 5.02e-05 s⁻¹

Ask | Requested field: self-cleavage kobs at 160 uM GlcN6P. Item: A39U G41U
Reply | 6.52e-05 s⁻¹

Ask | Requested field: self-cleavage kobs at 160 uM GlcN6P. Item: A48C A52U
Reply | < 1e-05 s⁻¹

Ask | Requested field: self-cleavage kobs at 160 uM GlcN6P. Item: U31C U54A C67G
Reply | 3.53e-05 s⁻¹

Ask | Requested field: self-cleavage kobs at 160 uM GlcN6P. Item: G13U G35U
Reply | < 1e-05 s⁻¹

Ask | Requested field: self-cleavage kobs at 160 uM GlcN6P. Item: C50G U55A
Reply | 9.39e-05 s⁻¹

Ask | Requested field: self-cleavage kobs at 160 uM GlcN6P. Item: A39C C71G
Reply | < 1e-05 s⁻¹

Ask | Requested field: self-cleavage kobs at 160 uM GlcN6P. Item: C8G G29U
Reply | < 1e-05 s⁻¹

Ask | Requested field: self-cleavage kobs at 160 uM GlcN6P. Item: C34U G43A
Reply | < 1e-05 s⁻¹

Ask | Requested field: self-cleavage kobs at 160 uM GlcN6P. Item: A12G C50U
Reply | < 1e-05 s⁻¹

Ask | Requested field: self-cleavage kobs at 160 uM GlcN6P. Item: G37C U65C
Reply | < 1e-05 s⁻¹

Ask | Requested field: self-cleavage kobs at 160 uM GlcN6P. Item: A6C U49C
Reply | < 1e-05 s⁻¹

Ask | Requested field: self-cleavage kobs at 160 uM GlcN6P. Item: C34U G66U
Reply | < 1e-05 s⁻¹

Ask | Requested field: self-cleavage kobs at 160 uM GlcN6P. Item: G51U G63C C67G
Reply | < 1e-05 s⁻¹

Ask | Requested field: self-cleavage kobs at 160 uM GlcN6P. Item: A6U A52U
Reply | < 1e-05 s⁻¹

Ask | Requested field: self-cleavage kobs at 160 uM GlcN6P. Item: A14U U46A
Reply | 2.43e-05 s⁻¹

Ask | Requested field: self-cleavage kobs at 160 uM GlcN6P. Item: A12C U65G
Reply | 0.000115 s⁻¹

Ask | Requested field: self-cleavage kobs at 160 uM GlcN6P. Item: U54A C70G
Reply | 6.78e-05 s⁻¹

Ask | Requested field: self-cleavage kobs at 160 uM GlcN6P. Item: C34U G37U
Reply | < 1e-05 s⁻¹

Ask | Requested field: self-cleavage kobs at 160 uM GlcN6P. Item: G29A A33G
Reply | < 1e-05 s⁻¹

Ask | Requested field: self-cleavage kobs at 160 uM GlcN6P. Item: A14C G32U A52C
Reply | < 1e-05 s⁻¹

Ask | Requested field: self-cleavage kobs at 160 uM GlcN6P. Item: C16A U54C
Reply | 0.000102 s⁻¹

Ask | Requested field: self-cleavage kobs at 160 uM GlcN6P. Item: C50A G62U G63A
Reply | < 1e-05 s⁻¹

Ask | Requested field: self-cleavage kobs at 160 uM GlcN6P. Item: U31C A39U
Reply | 0.000146 s⁻¹

Ask | Requested field: self-cleavage kobs at 160 uM GlcN6P. Item: G41U A42C
Reply | < 1e-05 s⁻¹

Ask | Requested field: self-cleavage kobs at 160 uM GlcN6P. Item: A39G U56C
Reply | 0.000656 s⁻¹

Ask | Requested field: self-cleavage kobs at 160 uM GlcN6P. Item: G13U C67U
Reply | 2.74e-05 s⁻¹

Ask | Requested field: self-cleavage kobs at 160 uM GlcN6P. Item: G7C C70A
Reply | < 1e-05 s⁻¹

Ask | Requested field: self-cleavage kobs at 160 uM GlcN6P. Item: C16U A42U C67G
Reply | 6.07e-05 s⁻¹

Ask | Requested field: self-cleavage kobs at 160 uM GlcN6P. Item: G13U A39G
Reply | 0.000147 s⁻¹

Ask | Requested field: self-cleavage kobs at 160 uM GlcN6P. Item: A14C A36C A52U
Reply | < 1e-05 s⁻¹

Ask | Requested field: self-cleavage kobs at 160 uM GlcN6P. Item: C11U C61A C67G
Reply | 7.27e-05 s⁻¹

Ask | Requested field: self-cleavage kobs at 160 uM GlcN6P. Item: G40A A64G
Reply | 0.000131 s⁻¹

Ask | Requested field: self-cleavage kobs at 160 uM GlcN6P. Item: G43A U55G
Reply | < 1e-05 s⁻¹

Ask | Requested field: self-cleavage kobs at 160 uM GlcN6P. Item: G44A C67U
Reply | 0.00265 s⁻¹

Ask | Requested field: self-cleavage kobs at 160 uM GlcN6P. Item: C8G A39C
Reply | < 1e-05 s⁻¹
